Just for reference, paper PMC9911399 is where these values come from.

// values below are reported binding signal
Biological target: T1, RBFOX1 RRM RbFoxmut (Fox-RRM*) (Homo sapiens, UniProt Q9NWB1 109-208, R118D;E147R;N151S;E152T)
T1 sequence: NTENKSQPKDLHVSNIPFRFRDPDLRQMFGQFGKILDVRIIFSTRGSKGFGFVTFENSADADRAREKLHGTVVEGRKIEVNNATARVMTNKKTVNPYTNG
Test: EMSA; HiTS-Eq, 1 nM pool, 10 min; buffer printed only for the single-RNA assays: 10 mM Tris pH 7.5, 150 mM NaCl, 3.4 mM EDTA, 0.001% NP-40, 30 C
Details: tags: His6 N-terminal (pET28a); label: 5' 32P
Whole data set: some 16,000 sequences, median “ka relative to ugcaugu” near 0.096, cut for the highest 2% near 0.35. The sample holds the highest values, similar sequences and a random draw of the others, so the mix is not that of the screen.

| binder | binding signal |
| --- | --- |
| GGUGUGA (DNA:RNA) RNA: GGGAGACCGGAAUUCAGAUUGUCCGGUGUGAUUAAAUCCCGUCGUAGCCACCA DNA 1: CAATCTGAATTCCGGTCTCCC DNA 2: TGGTGGCTACGACGGGATT | 0.112 KA relative to UGCAUGU |
| GUCGUGA (DNA:RNA) RNA: GGGAGACCGGAAUUCAGAUUGUCCGUCGUGAUUAAAUCCCGUCGUAGCCACCA DNA 1: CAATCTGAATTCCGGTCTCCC DNA 2: TGGTGGCTACGACGGGATT | 0.126 KA relative to UGCAUGU |
| GGUGAUG (DNA:RNA) RNA: GGGAGACCGGAAUUCAGAUUGUCCGGUGAUGUUAAAUCCCGUCGUAGCCACCA DNA 1: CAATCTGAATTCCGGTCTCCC DNA 2: TGGTGGCTACGACGGGATT | 0.412 KA relative to UGCAUGU |

Answer with the recorded binding signal of AUCGUGG (DNA:RNA) RNA: GGGAGACCGGAAUUCAGAUUGUCCAUCGUGGUUAAAUCCCGUCGUAGCCACCA DNA 1: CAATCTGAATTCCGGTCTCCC DNA 2: TGGTGGCTACGACGGGATT only. 0.124 KA relative to UGCAUGU

Answer with the recorded binding signal of GUGAUUG (DNA:RNA) RNA: GGGAGACCGGAAUUCAGAUUGUCCGUGAUUGUUAAAUCCCGUCGUAGCCACCA DNA 1: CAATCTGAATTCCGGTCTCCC DNA 2: TGGTGGCTACGACGGGATT only. 0.454 KA relative to UGCAUGU
